IC50, Matrix metalloproteinase-9 (Homo sapiens, UniProt P14780): measured values
VALUE KIND: IC50 (nM)

INSERT INTO assay_data (compound_structure_string, value_kind, experimental_value) VALUES
  ('CNC(=O)[C@@H](NC(=O)[C@H](CC(C)C)[C@H](C)C(=O)NO)c1ccccc1', 'IC50', 3.9),
  ('CNC(=O)[C@@H](NC(=O)[C@H](CC(C)C)[C@H](C)C(=O)NO)C1CCCCC1', 'IC50', 0.9),
  ('CNC(=O)[C@@H](NC(=O)[C@@H](CC(=O)NO)CC(C)C)C1CCCCC1', 'IC50', 5);

1 = CNC(=O)[C@@H](NC(=O)[C@H](CCCc1ccccc1)CC(=O)NO)C(C)C
2 = CNC(=O)[C@H](Cc1cccc2c1CCCC2)NC(=O)[C@H](CC(C)C)[C@H](C)C(=O)NO
3 = CNC(=O)[C@@H](NC(=O)[C@H](CCCc1ccccc1)CC(=O)NO)C(C)(C)C
In this exercise, place the 3 molecules in ascending sequence of their recorded IC50. Please write the labels in the order that was asked for.
2, 3, 1
(2: 0.3 nM, 3: 1.3 nM, 1: 2.8 nM)

---

target: Matrix metalloproteinase-14 (Homo sapiens, UniProt P50281); assay: Activity against deletion mutant of MT1-MMP lacking the transmembrane domain (deltaMT1)
pIC50: −log10 of the molar value.
VALUE KIND: pIC50

Answered examples (5):
INSERT INTO results (molecule, experimental_value) VALUES
  ('CNC(=O)[C@@H](NC(=O)[C@@H](CC(=O)NO)CC(C)C)C1CCCCC1', 8.64),
  ('CNC(=O)[C@@H](NC(=O)[C@H](CCc1ccccc1)CC(=O)NO)c1ccccc1', 6.98),
  ('CNC(=O)[C@@H](NC(=O)[C@@H](CC(=O)NO)CC(C)C)C(C)(C)C', 8.72),
  ('CNC(=O)[C@@H](NC(=O)[C@H](CCCc1ccccc1)CC(=O)NO)C(C)(C)C', 8.72),
  ('CNC(=O)[C@@H](NC(=O)[C@H](CC(C)C)[C@H](C)C(=O)NO)c1ccccc1', 7.25);

1 = CNC(=O)[C@@H](NC(=O)[C@H](CCCc1ccccc1)CC(=O)NO)C(C)C
2 = CNC(=O)[C@@H](NC(=O)[C@H](CC(C)C)[C@H](C)C(=O)NO)C1CCCCC1
3 = CNC(=O)[C@@H](NC(=O)[C@H](CC(C)C)[C@H](CN1CCOCC1)C(=O)NO)c1ccccc1
In this exercise, place the 3 molecules in ascending sequence of their recorded pIC50. Please write the labels in the order that was asked for.
3, 2, 1

I = CNC(=O)[C@@H](NC(=O)C(CC(C)C)C(O)C(=O)NO)C(C)(C)C (single isomer, unassigned)
II = CCCCCCCCC[C@H](CC(=O)NO)C(=O)N[C@H](C(=O)NC)c1ccccc1
Could you point out whether the larger pIC50 belongs to I or to II ? Write the label of whichever entry you select.
I
(I: 8.74, II: 7.75)

I = CNC(=O)[C@@H](NC(=O)[C@@H](CC(=O)NO)CC(C)C)c1ccccc1
II = CNC(=O)[C@H](Cc1ccccc1)NC(=O)[C@H](CC(C)C)[C@H](CSc1cccs1)C(=O)NO
Which value of pIC50 is smaller, the one for I or the one for II ? Write the label of whichever entry you select.
I
(I: 7.71, II: 8.52)

a = CNC(=O)[C@H](Cc1cccc2c1CCCC2)NC(=O)[C@H](CC(C)C)[C@H](C)C(=O)NO
b = CNC(=O)[C@@H](NC(=O)[C@H](CCCc1ccccc1)CC(=O)NO)c1ccccc1
Which value of pIC50 is smaller, the one for a or the one for b ? Write the label of whichever entry you select.
b
